Test system: Staphylococcus aureus
Assay: Antibacterial activity against Staphylococcus aureus ATCC 25923 incubated for 16 to 24 hrs by broth microdilution method
Type: functional
Settings: time 16-24 hrs
Recorded MIC for the following molecules
property: MIC (µg/mL)

molecule=CCn1c(=O)c(C(=O)Nc2nnc(-c3ncccc3C)s2)c(O)c2ccccc21 property=MIC endpoint_unit=µg/mL cmp=> observed_value=8
molecule="CN(C)c1cc(NC(=O)CNC(C)(C)C)c(O)c2c1C[C@H]1C[C@H]3[C@H](N(C)C)C(O)=C(C(N)=O)C(=O)[C@@]3(O)C(O)=C1C2=O [TIGECYCLINE]" property=MIC endpoint_unit=µg/mL cmp== observed_value=0.92
molecule="CNC(C)[C@@H]1CC[C@@H](N)[C@@H](O[C@H]2[C@H](O)[C@@H](O[C@H]3OC[C@](C)(O)[C@H](NC)[C@H]3O)[C@H](N)C[C@@H]2N)O1.CN[C@@H]1[C@@H](O)[C@@H](O[C@@H]2[C@@H](O)[C@H](O[C@H]3O[C@H](C(C)N)CC[C@H]3N)[C@@H](N)C[C@H]2N)OC[C@]1(C)O.CN[C@@H]1[C@@H](O)[C@@H](O[C@@H]2[C@@H](O)[C@H](O[C@H]3O[C@H](CN)CC[C@H]3N)[C@@H](N)C[C@H]2N)OC[C@]1(C)O (some centres undefined)" property=MIC endpoint_unit=µg/mL cmp== observed_value=2.67
molecule=CCn1c(=O)c(C(=O)Nc2nnc(-c3ccc(F)cn3)s2)c(O)c2ccccc21 property=MIC endpoint_unit=µg/mL cmp== observed_value=0.46

====

System: Staphylococcus aureus
Test: Antibacterial activity against Staphylococcus aureus NCTC 8325-4 incubated for 16 to 24 hrs by broth microdilution method
Assay type: functional
Settings: time 16-24 hrs
Recorded MIC for the following compounds
property: MIC (µg/mL)

smiles_data=CCn1c(=O)c(C(=O)Nc2nnc(-c3ccc(C(F)(F)F)cn3)s2)c(O)c2ccccc21 cmp=> observed_value=8
smiles_data=CC1(C)S[C@H]([C@H](NC(=O)Cc2ccccc2)C(=O)NCc2ccccc2)N[C@H]1C(=O)N[C@H](Cc1ccccc1)[C@H](O)CC(=O)NCc1nc2ccccc2[nH]1 cmp== observed_value=0.63
smiles_data=CCn1c(=O)c(C(=O)Nc2nnc(-c3ccc(Br)cn3)s2)c(O)c2ccccc21 cmp== observed_value=0.27
smiles_data=CCn1c(=O)c(C(=O)Nc2nnc(-c3ncccc3C)s2)c(O)c2ccccc21 cmp=> observed_value=8
smiles_data=CCn1c(=O)c(C(=O)Nc2nnc(-c3cccc(C)n3)s2)c(O)c2ccccc21 cmp== observed_value=0.05
